Exercise: for every item that follows, state its recorded hERG current change (%, negative = inhibition) at 10uM.
target: human ether-à-go-go-related gene (hERG) potassium channel (human); test: primary screen, population patch clamp on CHO cells stably expressing hERG; higher = less effect of the substance;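 also: peak tail current of the secondary pulse compared with the same well before compound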
Sequence (Q12809 whole entry, looked up): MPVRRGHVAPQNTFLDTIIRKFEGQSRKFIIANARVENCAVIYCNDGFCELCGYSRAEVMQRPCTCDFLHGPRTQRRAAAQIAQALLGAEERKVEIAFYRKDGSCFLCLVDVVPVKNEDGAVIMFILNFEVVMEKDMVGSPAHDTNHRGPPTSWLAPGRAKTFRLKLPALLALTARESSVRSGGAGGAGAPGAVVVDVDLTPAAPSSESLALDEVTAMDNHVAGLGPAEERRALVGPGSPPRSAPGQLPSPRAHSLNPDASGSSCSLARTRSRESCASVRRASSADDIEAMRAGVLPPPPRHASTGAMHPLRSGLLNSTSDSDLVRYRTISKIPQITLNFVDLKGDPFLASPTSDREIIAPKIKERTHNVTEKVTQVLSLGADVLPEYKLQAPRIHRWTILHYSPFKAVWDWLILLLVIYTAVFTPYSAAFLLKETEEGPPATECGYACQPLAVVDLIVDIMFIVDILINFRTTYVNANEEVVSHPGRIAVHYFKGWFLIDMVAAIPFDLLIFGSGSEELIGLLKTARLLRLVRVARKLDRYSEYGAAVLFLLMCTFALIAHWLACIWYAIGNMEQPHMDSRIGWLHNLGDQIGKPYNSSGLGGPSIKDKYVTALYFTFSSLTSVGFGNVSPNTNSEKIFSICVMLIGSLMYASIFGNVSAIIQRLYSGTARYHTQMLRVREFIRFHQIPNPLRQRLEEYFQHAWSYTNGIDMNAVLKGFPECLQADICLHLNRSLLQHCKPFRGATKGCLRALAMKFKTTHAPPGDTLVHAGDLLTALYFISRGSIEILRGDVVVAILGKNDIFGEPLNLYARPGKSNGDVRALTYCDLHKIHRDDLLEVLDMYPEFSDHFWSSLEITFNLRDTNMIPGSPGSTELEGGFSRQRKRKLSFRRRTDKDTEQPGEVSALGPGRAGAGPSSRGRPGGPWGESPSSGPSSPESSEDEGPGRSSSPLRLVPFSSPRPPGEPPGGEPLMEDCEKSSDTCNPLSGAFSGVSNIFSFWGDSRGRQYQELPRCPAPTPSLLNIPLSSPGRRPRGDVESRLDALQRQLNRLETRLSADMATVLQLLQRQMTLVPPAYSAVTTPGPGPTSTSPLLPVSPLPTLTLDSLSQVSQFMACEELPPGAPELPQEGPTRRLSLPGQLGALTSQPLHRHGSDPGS
Among all 310,000 compounds or so, about 14,000 (4.5%) showed an effect of 50% or more. Effects have a minus sign here. The full list was thinned out, with strong results kept by preference.
One number for each entry, in %.

{"Molecule": "COc1ccc(C(=O)NCCCCc2ccccc2)cc1", "Measurement Target": "human ether-à-go-go-related gene (hERG) potassium channel (human)", "Output Unit": "%", "Measured Result": -4.68}
{"Molecule": "CCN1CCN(C(=O)c2ccc3c(c2)N(Cc2ccc(F)cc2)C(=O)c2ccccc2S3=O)CC1 (centres unmarked)", "Measurement Target": "human ether-à-go-go-related gene (hERG) potassium channel (human)", "Output Unit": "%", "Measured Result": -9.09}
{"Molecule": "COc1cc(OC)cc(C(=O)NCCCCc2ccccc2)c1", "Measurement Target": "human ether-à-go-go-related gene (hERG) potassium channel (human)", "Output Unit": "%", "Measured Result": -56}
{"Molecule": "O=C(Nc1cccc(C(F)(F)F)c1)C(Sc1cccc[n+]1[O-])c1ccccc1 (centres unmarked)", "Measurement Target": "human ether-à-go-go-related gene (hERG) potassium channel (human)", "Output Unit": "%", "Measured Result": -42.7}
{"Molecule": "O=C(Nc1ccncc1)c1cccn(Cc2ccccc2)c1=O", "Measurement Target": "human ether-à-go-go-related gene (hERG) potassium channel (human)", "Output Unit": "%", "Measured Result": -55.8}

Batch request: hERG current change (%, negative = inhibition) at 10uM for each of the following molecules.
1. CCn1c(=O)c(C(=O)NNC(=O)c2cccc(Cl)c2)c(O)c2ccccc21
2. O=C(Nc1cc(C(F)(F)F)ccc1Cl)C(Sc1cccc[n+]1[O-])c1ccccc1 (centres unmarked)
3. O=C(CCN1C(=O)C2C3C=CC(C3)C2C1=O)N1CCN(c2ccc([N+](=O)[O-])cc2)CC1 (centres unmarked)
4. Cc1cc(O)ccc1N/C=C(\C#N)c1nc2ccccc2o1

1. 32.4
2. -14.5
3. -81.2
4. 10.2

Batch request: hERG current change (%, negative = inhibition) at 10uM for each of the following molecules.
1. Cc1ccc(CN2CCN(Cc3cn[nH]c3-c3cccc(F)c3)CC2CCO)o1 (centres unmarked)
2. O=C(Nc1ccccc1)c1cccn(Cc2ccccc2)c1=O
3. Cc1cc(C)c(C#N)c(SCc2nnc(-c3ccccc3)o2)n1
4. O=C(c1ccc2c(c1)OCO2)C1CCCN(Cc2c(F)cccc2Cl)C1 (centres unmarked)

-25.8
13.7
-0.532
-32.5

Batch request: hERG current change (%, negative = inhibition) at 10uM for each of the following molecules.
1. O=C(CCN1C(=O)C2C3C=CC(C3)C2C1=O)N1CCN(c2ccc(F)cc2)CC1 (centres unmarked)
2. COc1cc(OC)cc(C(=O)NCCCCNC(=O)c2cc(OC)cc(OC)c2)c1
3. COc1cccc(NC(=O)C(NCC(C)(C)CN(C)C)c2ccccc2)c1.O=C(O)C(=O)O (centres unmarked)
4. O=C(CCc1ccccc1)Nc1cccc(NC(=O)CCc2ccccc2)c1

1. -25.8
2. 4.94
3. -48.4
4. -13.4

Batch request: hERG current change (%, negative = inhibition) at 10uM for each of the following molecules.
1. Fc1ccc(C2CC(c3ccc(F)cc3)n3ncnc3N2)cc1 (centres unmarked)
2. CCOC(=O)N1CCN(C(=O)CSc2ccc(-c3ccncc3)nn2)CC1
3. CCCCNC(=O)Nc1nnc(-c2ccc(OCC)cc2)o1

-60
-0.414
10.1
